Parameter: ED50 at 20 min. Scope: all listed entries.
test: Central depressant action (spontaneous behavior, revolutionary wheel); set-up: species or system ddy Male mice; details: mouse, in vivo, ip; intraperitoneal administration; dose reducing the number of wheel revolutions in 20 minutes by 50%; read-out: Central depressant action ED₅₀
Where a name gives a salt, the structure may show the parent alone.
Field: numeric (mg/kg). Do not append units.

Worked examples, 5 compounds total:
| compound | ED50 at 20 min, mg/kg |
| --- | --- |
| CC(CN1CCCCC1)C(=O)c1cc(Cc2ccccc2)no1.Cl (stereo not shown) [Example 21] | 52 |
| CCC(CN1CCCC1)C(=O)c1cc(-c2ccccc2)no1 (stereo not shown) [Example 28, hydrochloride] | 44 |
| CCC(CN1CCCC1)C(=O)c1snc2ccccc12 (stereo not shown) [Example 62] | 50 |
| CC(CN1CCCC1)C(=O)c1cc(-c2ccccc2)no1 (stereo not shown) [Example 5] | 44 |
| CCC(CN1CCCCC1)C(=O)c1cc(-c2ccccc2)no1 (stereo not shown) [Example 29] | 38 |

Look up ED50 at 20 min: CC(CN1CCCCC1)C(=O)c1cc(C(=O)c2ccccc2)no1.Cl (stereo not shown) [Example 22]
43

Look up ED50 at 20 min: CC(CN1CCCC1)C(=O)c1snc2ccccc12 (stereo not shown) [Example 61]
37

* * *

Parameter: LD50 at 24 h. Scope: all listed entries.
assay: Acute toxicity; settings: mouse, in vivo, ip; intraperitoneally administered; alive or dead observed one day later; read-out: LD₅₀
Structures can show the parent of a compound that is named as a salt.

| compound | quantity | result |
| --- | --- | --- |
| CC(CN1CCCC1)C(=O)c1cc(-c2ccccc2)no1 (stereo not drawn) | LD50 at 24 h | 100 to 170 mg/kg |
| CCc1ccc(C(=O)C(C)CN2CCCCC2)cc1 (stereo not drawn) [Eperisone hydrochloride, eperisone hydrochloride, reference compound] | LD50 at 24 h | 100 to 170 mg/kg |
| CC(CN1CCCCC1)C(=O)c1cc(-c2ccccc2)no1.Cl (stereo not drawn) | LD50 at 24 h | 170 to 300 mg/kg |

Look up LD50 at 24 h: CCC(CN1CCCC1)C(=O)c1cc(-c2ccccc2)no1 (stereo not drawn) [Example 28, hydrochloride]
100 to 170 mg/kg

Look up LD50 at 24 h: Cc1ccc(-c2cc(C(=O)C(C)CN3CCCC3)on2)o1 (stereo not drawn) [Example 20, hydrochloride]
170 to 300 mg/kg

Look up LD50 at 24 h: CCC(CN1CCCCC1)C(=O)c1cc(-c2ccccc2)no1 (stereo not drawn)
300 to 500 mg/kg

* * *

Parameter: inhibition in vivo at 3 mg/kg. Scope: all listed entries.
system: flexor reflex of the right anterior tibialis; test: Depressing action for the spinal reflex of cat (flexor reflex); format: in vivo, cats; settings: Felis catus, iv; intravenously administered at 3 mg/kg; contraction force before the administration = 100%; read-out: Reflex inhibition, %
Structures can show the parent of a compound that is named as a salt.
Field: numeric (%). Do not append units.

| molecule | assayed_system | quantity | quantitative_result |
| --- | --- | --- | --- |
| CCC(CN1CCCCC1)C(=O)c1cc(-c2ccccc2)no1 (centres unmarked) | flexor reflex of the right anterior tibialis | inhibition in vivo at 3 mg/kg | 70 |

Look up inhibition in vivo at 3 mg/kg: Cc1onc(-c2ccccc2)c1C(=O)C(C)CN1CCCCC1.Cl (centres unmarked) [Example 68, hydrochloride]
56

Look up inhibition in vivo at 3 mg/kg: CC(CN1CCCC1)C(=O)c1snc2ccccc12 (centres unmarked)
85

Look up inhibition in vivo at 3 mg/kg: CC(C)C(CN1CCCC1)C(=O)c1cc(-c2ccccc2)no1 (centres unmarked) [Example 46, hydrochloride]
66
